Biological target: T1, TIAR RRM2,3 (UniProt Q01085 94-375)
T1 sequence: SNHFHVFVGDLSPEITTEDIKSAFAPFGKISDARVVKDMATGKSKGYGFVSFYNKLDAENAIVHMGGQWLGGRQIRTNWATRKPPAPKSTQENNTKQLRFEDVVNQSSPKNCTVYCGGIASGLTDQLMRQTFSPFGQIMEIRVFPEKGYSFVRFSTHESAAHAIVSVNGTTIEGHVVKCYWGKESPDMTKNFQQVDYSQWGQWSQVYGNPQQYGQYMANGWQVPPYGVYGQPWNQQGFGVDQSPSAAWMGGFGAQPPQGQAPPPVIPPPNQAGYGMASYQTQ
Test: UV crosslinking titration
OUTCOME_MEASURE: Kd (nM)
Numbers only; they are read as nM.

query: Request the reported Kd associated with AGAATTAAATTCTTTAATACAAAATGCTTTTTTTTTTTTA (ssDNA) [VEGF-AS1]
result: 3
